assay: calorie-restriction mimetic ROS inhibitors, yeast – validation compound set, pilot screen (AID 2706);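 note: yeast exposed to compound for one week at 30 degrees C before staining; 100% = mean of all compound wells on the same plate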; details: S. cerevisiae aging, superoxide DHE fluorescence; at 10 µM; stronger effect = lower value
observable: superoxide response (% of plate) (%)

{"compound": "COc1ccc(NC2=C(Cl)C(=O)N(c3ccccc3)C2=O)c(OC)c1", "val": 94.5}
{"compound": "COc1ccc([C@H]2[C@H](C(=O)OC(C)(C)C)N3N=Cc4ccccc4C3C23C(=O)c2ccccc2C3=O)cc1OC (some centres undefined)", "val": 103}
{"compound": "Cc1nc(N)sc1C(=O)N/N=C/c1ccco1", "val": 89.3}
{"compound": "O=Cc1ccc(OC(=O)c2cccnc2)cc1", "val": 98.5}
{"compound": "CCN(CCCCCN(C)C)Cc1cc2ccccc2o1", "val": 79.9}
{"compound": "CCOC(=O)C(Cc1cc(C(C)=O)ccc1OC(C)C)C(=O)OCC", "val": 91}
{"compound": "CC12CCC(C(=O)N3CCc4ccccc43)(CC1=O)C2(C)C (centres undefined)", "val": 108}
{"compound": "COc1ccc2c(c1)C=CC1(O2)N(CCO)c2ccccc2C1(C)C (centres undefined)", "val": 108}
{"compound": "O=C(/C=C/c1ccc(F)cc1)NC(=S)N1CCCCC1c1cccnc1 (centres undefined)", "val": 92.2}
{"compound": "CC(C)c1ccc(NC(=O)CNS(=O)(=O)c2ccc(F)cc2)cc1", "val": 114}
{"compound": "COc1ccc(OC)c(S(=O)(=O)N2CCCc3ccccc32)c1", "val": 97.2}
{"compound": "COc1cc(C)nc(-n2nc(C)cc2OC)n1", "val": 88.7}
{"compound": "N/C(=N\\OC(=O)c1ccc(Br)o1)c1ccccn1", "val": 117}
{"compound": "CCOC(=O)c1c(C)oc2c1C(=O)c1ccccc1C2=O", "val": 126}
{"compound": "CCn1c(C)cc2c(c1=O)C(c1ccccc1)C(C(=O)OC)=C(N)O2 (centres undefined)", "val": 108}
{"compound": "Cc1ccc(S(=O)(=O)NC(=O)NN2CCCCCC2)cc1", "val": 92.2}
{"compound": "CCOc1ccc(NC2OC(C)C(O)C(O)C2O)c([N+](=O)[O-])c1 (centres undefined)", "val": 102}
{"compound": "O=C(O)[C@H](Cc1ccccc1)NC(=O)N1CCC(Cc2ccccc2)CC1", "val": 108}
{"compound": "COc1c(C=O)c(CCN(C)C(=O)c2ccc(F)cc2)cc2c1OCO2", "val": 115}
{"compound": "CSc1ccc(/C=N/N2CCN(Cc3ccc(C)cc3C)CC2)cc1", "val": 97.2}
{"compound": "CCCCOn1c(C)c(C(C)=O)c2c3no[n+]([O-])c3ccc21", "val": 106}
{"compound": "CCCCN1C[C@H](O)[C@@H](O)[C@H](O)[C@H]1CO", "val": 104}
{"compound": "CN1C(C(=O)Nc2ccccn2)=C(O)c2sccc2S1(=O)=O", "val": 113}
{"compound": "NCCc1ccc(O)c(O)c1", "val": 90.7}

---

We begin with a simple list: items and their reported double positive events.
test: reduced mouse 2C T cell binding to pMHC/ICAM-1 vesicles – MLPCN validation set, flow cytometry, LFA-1/ICAM-1 modulator project, pilot screen (AID 2523); conditions: 2C mouse CD8+ T cells, at 7 µM, stronger effect = lower value; measured here: CD8+/vesicle+ event percentage
observable: double positive events (%)

{"molecule": "C1COC(NC(C2CC2)C2CC2)=N1", "val": 64.4}
{"molecule": "CC12CCC(C(=O)N3CCc4ccccc43)(CC1=O)C2(C)C (stereo unspecified)", "val": 60.3}
{"molecule": "O=c1cnn([C@@H]2O[C@H](CO)[C@@H](O)[C@H]2O)c(=O)[nH]1", "val": 62.2}
{"molecule": "COc1ccc(-c2[nH]ncc2CN(CCO)Cc2cccs2)c(F)c1", "val": 62.7}
{"molecule": "COc1ccc(/C=C2\\CC/C(=C\\c3ccc(OC)c(OC)c3)C2=O)cc1OC", "val": 59.8}
{"molecule": "Cn1cc(C2N3CC4(C)CN2CC(C)(C3)C4=O)c2ccccc21 (stereo unspecified)", "val": 50.6}

---

target: Beta-adrenergic receptor kinase 1 (Homo sapiens) (UniProt P25098); assay: GRK2 binders displacing RNA aptamer, biochemical, validation, human GRK2, bead flow cytometry (AID 488806); conditions: bead-bound GRK2, FAM-aptamer displacement, at 10 µM, stronger effect = higher value
Sequence (P25098 whole entry, looked up): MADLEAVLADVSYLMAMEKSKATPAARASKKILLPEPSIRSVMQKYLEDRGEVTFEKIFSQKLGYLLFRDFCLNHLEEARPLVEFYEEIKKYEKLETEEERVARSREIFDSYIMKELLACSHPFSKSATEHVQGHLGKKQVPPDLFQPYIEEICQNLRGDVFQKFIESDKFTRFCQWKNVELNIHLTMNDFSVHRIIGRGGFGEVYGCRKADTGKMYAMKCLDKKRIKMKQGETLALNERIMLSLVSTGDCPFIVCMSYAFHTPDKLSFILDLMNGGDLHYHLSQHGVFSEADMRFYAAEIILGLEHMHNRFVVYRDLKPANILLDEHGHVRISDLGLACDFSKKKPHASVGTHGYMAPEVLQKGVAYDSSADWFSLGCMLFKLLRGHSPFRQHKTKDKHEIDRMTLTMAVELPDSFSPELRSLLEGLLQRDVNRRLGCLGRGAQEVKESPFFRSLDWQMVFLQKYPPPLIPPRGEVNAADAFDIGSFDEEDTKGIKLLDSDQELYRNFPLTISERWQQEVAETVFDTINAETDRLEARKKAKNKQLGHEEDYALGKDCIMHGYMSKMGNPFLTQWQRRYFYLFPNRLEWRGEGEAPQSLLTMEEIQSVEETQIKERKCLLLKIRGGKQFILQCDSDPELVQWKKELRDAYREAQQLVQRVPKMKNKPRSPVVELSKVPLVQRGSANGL
observable: aptamer binding inhibition (%)

{"compound": "O=C(NCCN1CCN(c2ccccc2)CC1)c1cccc(Br)c1", "observable": "aptamer binding inhibition", "val": 0}
{"compound": "CCOc1ccc2ccccc2c1C(=O)N[C@@H]1C(=O)N2[C@@H]1SC(C)(C)[C@@H]2C(=O)O", "observable": "aptamer binding inhibition", "val": 2}
{"compound": "CCCCCC#CCC#CCC#CCC#CCCCC(=O)O", "observable": "aptamer binding inhibition", "val": 62}
{"compound": "O=C1OC(c2ccccc2)=C/C1=C/c1cccs1", "observable": "aptamer binding inhibition", "val": 1}
{"compound": "COc1ccc2c(c1)c(=O)oc1cc3occ(C(C)(C)C)c3cc12", "observable": "aptamer binding inhibition", "val": 0}
{"compound": "Cn1c(=O)[nH]c2nnc(-c3ccc(Cl)c(Cl)c3)nc2c1=O", "observable": "aptamer binding inhibition", "val": 9}
{"compound": "Cc1nonc1CN(C)C(=O)c1ccc(OC2CCN(Cc3ccccn3)CC2)cc1", "observable": "aptamer binding inhibition", "val": 0}
{"compound": "Cc1cccc(-n2c(Cc3ccccc3)n[nH]c2=S)c1", "observable": "aptamer binding inhibition", "val": 4}
{"compound": "CN1C2CCC1CC(OC(c1ccccc1)c1ccccc1)C2 (stereo not given)", "observable": "aptamer binding inhibition", "val": -8}
{"compound": "C[C@H](CCC(=O)O)[C@H]1CC[C@H]2[C@@H]3C(=O)C[C@@H]4CC(=O)CC[C@]4(C)[C@H]3CC(=O)[C@]12C", "observable": "aptamer binding inhibition", "val": 4}
{"compound": "Cc1cccc(Nc2ncccc2C(=O)O)c1C", "observable": "aptamer binding inhibition", "val": 1}
{"compound": "Cc1nc(NC(CC(C)C)C(=O)O)c2nc(C)oc2n1 (stereo not given)", "observable": "aptamer binding inhibition", "val": 7}
{"compound": "O=C1CC2(CCCC2)CC(=O)N1CCCCN1CCN(c2ncccn2)CC1", "observable": "aptamer binding inhibition", "val": 3}
{"compound": "COc1ccc(OC(C)C(=O)Nc2ccc([N+](=O)[O-])cc2)cc1 (stereo not given)", "observable": "aptamer binding inhibition", "val": -3}
{"compound": "Cc1nc2ccccc2n1CC(=O)NC1CCCC1", "observable": "aptamer binding inhibition", "val": -2}
{"compound": "COc1ccc(CNC(=O)N[C@H](C(=O)O)C(C)C)cc1OC", "observable": "aptamer binding inhibition", "val": -5}
{"compound": "O=C(O)CCC(=O)c1ccc(-c2ccccc2)cc1", "observable": "aptamer binding inhibition", "val": -1}
{"compound": "CC1=NN(C(=O)c2ccc(Br)cc2)C(O)(c2ccccc2)C1 (stereo not given)", "observable": "aptamer binding inhibition", "val": 0}
{"compound": "COc1ccc(NC(=O)CC(c2ccccc2)c2ccco2)cc1 (stereo not given)", "observable": "aptamer binding inhibition", "val": 2}
{"compound": "CC(C)(CO)CNC(=O)CC1C(=O)NCCN1CC(c1ccccc1)c1ccccc1 (stereo not given)", "observable": "aptamer binding inhibition", "val": -1}
{"compound": "NS(=O)(=O)c1cc2c(cc1Cl)NC(C1C[C@H]3C=C[C@@H]1C3)NS2(=O)=O (stereo not given in full)", "observable": "aptamer binding inhibition", "val": 2}
{"compound": "COC(=O)c1sccc1NC(=O)Nc1ccccc1F", "observable": "aptamer binding inhibition", "val": -3}
{"compound": "COc1ccc(-c2nc3c(=O)n(C)c(=O)[nH]c3n2CCc2ccccc2)cc1", "observable": "aptamer binding inhibition", "val": 0}
{"compound": "O=C(NCCc1c[nH]c2ccccc12)OCCSS(=O)(=O)O", "observable": "aptamer binding inhibition", "val": 3}
{"compound": "CCOC(=O)C(NC(=O)CCC(=O)Nc1ccc(S(N)(=O)=O)cc1)C(O)c1ccccc1 (stereo not given)", "observable": "aptamer binding inhibition", "val": 6}
{"compound": "COC(=O)CSc1nc2ccc(N)cc2s1", "observable": "aptamer binding inhibition", "val": -1}
{"compound": "CCCCN(CCCC)CCCOC(=O)c1ccc(N)cc1", "observable": "aptamer binding inhibition", "val": 0}
{"compound": "NC(N)=NC(=O)Cc1c(Cl)cccc1Cl", "observable": "aptamer binding inhibition", "val": -1}
{"compound": "CC1(C)C(C=C(Cl)Cl)C1C(=O)N1CCN(Cc2ccccc2)CC1 (stereo not given)", "observable": "aptamer binding inhibition", "val": 3}
{"compound": "Cc1ccc(C(=O)Nc2ccc(O)cc2C(=O)O)cc1C", "observable": "aptamer binding inhibition", "val": 3}
{"compound": "O=C(CNC(=O)OCc1ccccc1)Oc1cc2oc(=O)cc(-c3ccccc3)c2cc1Cl", "observable": "aptamer binding inhibition", "val": 8}
{"compound": "O=C(CCCn1c(=O)oc2ccccc21)N1CCN(c2ccc(F)cc2)CC1", "observable": "aptamer binding inhibition", "val": 1}
{"compound": "COc1ccc(C2C(C#N)=C(N)Oc3cc(C)[nH]c(=O)c32)c(OC)c1OC (stereo not given)", "observable": "aptamer binding inhibition", "val": 4}
{"compound": "COc1cccc(CN2C(=O)N(C(C)C)C(N(O)C(=O)NC(C)C)C2(C)C)c1OC (stereo not given)", "observable": "aptamer binding inhibition", "val": -1}
{"compound": "O=C(c1cc2cc(Br)ccc2o1)N1CCCC1", "observable": "aptamer binding inhibition", "val": 0}
{"compound": "Cc1ccc(/C=N/NC(=O)C2(C)CC2(Br)Br)cc1 (stereo not given)", "observable": "aptamer binding inhibition", "val": -4}
{"compound": "O=C(COc1ccc2c(-c3ccccc3)cc(=O)oc2c1)NCc1cccs1", "observable": "aptamer binding inhibition", "val": -2}
{"compound": "CC(=O)NC(Cc1c[nH]c2ccccc12)C(=O)N/N=C/c1ccccc1 (stereo not given)", "observable": "aptamer binding inhibition", "val": -3}
{"compound": "C[C@@H]1C[C@H]2[C@@H]3C[C@H](F)C4=CC(=O)C=C[C@]4(C)[C@@]3(F)[C@@H](O)C[C@]2(C)[C@@]1(O)C(=O)COC(=O)C(C)(C)C", "observable": "aptamer binding inhibition", "val": 3}
{"compound": "COc1ccccc1OCC(=O)O", "observable": "aptamer binding inhibition", "val": -3}
{"compound": "CC(C)(C)C(=O)Nc1cccc(OC(F)(F)C(F)Cl)c1 (stereo not given)", "observable": "aptamer binding inhibition", "val": 4}
{"compound": "CCn1cc(CN2N=C(C)CC2c2ccccc2)c(C)n1 (stereo not given)", "observable": "aptamer binding inhibition", "val": 3}
{"compound": "COc1ccc(/C=C\\c2nc(=O)c3ccccc3o2)cc1", "observable": "aptamer binding inhibition", "val": 5}
{"compound": "O=C(O)c1ccccc1C(=O)OCCCCOC(=O)c1ccccc1C(=O)O", "observable": "aptamer binding inhibition", "val": 6}
{"compound": "CN1CCc2c(n(CC(O)CN(CCO)CCO)c3ccccc23)C1=O (stereo not given)", "observable": "aptamer binding inhibition", "val": 0}

Source of measurements: PubChem BioAssay
